Measured values drawn from the kinase profiling compilation of Christmann-Franck et al. (2016) for this set.

Biological target: PRKCA (human) (UniProt P17252)
Assay: radiometric filter-binding kinase assay
Settings: compound 0.1 µM
Below is a list of entries, each paired with its recorded residual activity value.
API: value field is a number in %; no unit string.

See these solved cases before continuing.
{"molecule": "COc1ccc(-n2ncc3cnc(Nc4cc(OC)c(OC)c(OCCCN5CCN(C)CC5)c4)nc32)cc1", "assayedTarget": "PRKCA (human) (UniProt P17252)", "residual activity [%]": 95}
{"molecule": "CN(C)C/C=C/C(=O)Nc1cccc(C(=O)Nc2ccc(Nc3nccc(-c4cccnc4)n3)cc2)c1", "assayedTarget": "PRKCA (human) (UniProt P17252)", "residual activity [%]": 89}
{"molecule": "O=C(Nc1ccccc1-c1cn2c(CN3CCNCC3)csc2n1)c1cnc2ccccc2n1", "assayedTarget": "PRKCA (human) (UniProt P17252)", "residual activity [%]": 114}
{"molecule": "Cn1c(=O)c2c(ncn2C)n(C)c1=O", "assayedTarget": "PRKCA (human) (UniProt P17252)", "residual activity [%]": 101}
{"molecule": "NC(=O)c1cc(-c2ccnc(NC3CCCCC3)c2)nc(N2CCNCC2)c1", "assayedTarget": "PRKCA (human) (UniProt P17252)", "residual activity [%]": 97}
{"molecule": "COc1cc(O)c2c(c1)/C=C/C[C@H](O)[C@H](O)C(=O)/C=C\\C[C@H](C)OC2=O", "assayedTarget": "PRKCA (human) (UniProt P17252)", "residual activity [%]": 107}
{"molecule": "CCc1cncnc1N1CCN(Cc2nc3cc(C(F)(F)F)ccc3[nH]2)CC1", "assayedTarget": "PRKCA (human) (UniProt P17252)", "residual activity [%]": 119}
{"molecule": "O=C(O)c1ccc(-c2c[nH]c3ncc(-c4ccccc4)cc23)cc1C1CCCC1", "assayedTarget": "PRKCA (human) (UniProt P17252)", "residual activity [%]": 100}

*Q* Any idea what its residual activity is? The molecule is C/C(=C1/C(=O)Nc2ccc(NC(N)=O)cc21)c1ccc[nH]1
*A* 107

*Q* Check O=C(Nc1nc2cc(C(F)(F)F)cc(NC3CC3)n2n1)c1cccnc1 too.
*A* 89

*Q* Check CCCCCc1ccc(/C=C/[C@H](O)[C@@H](CO)NC)cc1 too.
*A* 96

###

Target: MAPK3 (human) (UniProt P27361)
Sequence (P27361 whole entry, looked up): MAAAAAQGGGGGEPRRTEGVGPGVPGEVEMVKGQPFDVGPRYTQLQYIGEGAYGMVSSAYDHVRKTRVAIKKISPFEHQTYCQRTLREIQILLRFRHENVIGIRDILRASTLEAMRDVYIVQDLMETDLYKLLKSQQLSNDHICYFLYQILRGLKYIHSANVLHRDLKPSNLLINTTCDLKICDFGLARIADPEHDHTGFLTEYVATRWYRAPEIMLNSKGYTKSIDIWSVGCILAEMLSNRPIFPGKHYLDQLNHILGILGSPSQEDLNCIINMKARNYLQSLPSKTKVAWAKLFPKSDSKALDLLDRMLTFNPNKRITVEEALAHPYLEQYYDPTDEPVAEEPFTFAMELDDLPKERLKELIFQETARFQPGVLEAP
Experiment: radiometric filter-binding kinase assay
Settings: compound 10.0 µM
Below is a list of entries, each paired with its recorded residual activity value.
API: value field is a number in %; no unit string.

See these solved cases before continuing.
{"compound": "O=C1Nc2nc(-c3c(O)cccc3OCC3CC3)cc(C3CCCNC3)c2CO1 (centres undefined)", "measured": 86}
{"compound": "c1ccc2c(-c3cnn4cc(-c5ccc(N6CCNCC6)cc5)cnc34)ccnc2c1", "measured": 90}

*Q* Entry NC(=O)c1ccc(-c2ccc(Oc3cncc4sc(-c5nn[nH]n5)cc34)cc2)cc1 , system MAPK3 (human) (UniProt P27361): what residual activity was measured?
*A* 78

*Q* Check C=CC(=O)N1CCC[C@@H](n2nc(-c3ccc(Oc4ccccc4)cc3)c3c(N)ncnc32)C1 too.
*A* 84

###

System: AKT2 (human), P31751 [S474D]
Sequence (P31751 whole entry S474D, looked up): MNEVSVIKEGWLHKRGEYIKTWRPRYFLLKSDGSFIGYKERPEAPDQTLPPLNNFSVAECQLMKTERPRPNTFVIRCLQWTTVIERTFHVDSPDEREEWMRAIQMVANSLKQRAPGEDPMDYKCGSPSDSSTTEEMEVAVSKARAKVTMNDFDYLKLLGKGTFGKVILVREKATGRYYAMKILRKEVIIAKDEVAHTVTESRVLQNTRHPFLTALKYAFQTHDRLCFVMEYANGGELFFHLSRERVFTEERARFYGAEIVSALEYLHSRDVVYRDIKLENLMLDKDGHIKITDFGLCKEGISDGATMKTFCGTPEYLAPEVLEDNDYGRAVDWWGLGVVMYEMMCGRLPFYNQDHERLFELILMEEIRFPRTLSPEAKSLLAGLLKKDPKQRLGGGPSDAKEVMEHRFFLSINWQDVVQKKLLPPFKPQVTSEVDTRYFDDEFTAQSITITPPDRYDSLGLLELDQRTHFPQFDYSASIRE
Test: radiometric filter-binding kinase assay
Settings: compound 1.0 µM
measure: residual activity
A complete answer gives the number followed by the unit.

See these solved cases before continuing.
{"molecule": "Cc1ccc(Sc2cnc(Nc3cccc(Br)n3)s2)cc1C(=O)N1CCN(C(=O)CN)CC1", "assayedTarget": "AKT2 (human), P31751 [S474D]", "residual activity": "94%"}
{"molecule": "O=C(NOC[C@H](O)CO)c1ccc(F)c(F)c1Nc1ccc(I)cc1Cl", "assayedTarget": "AKT2 (human), P31751 [S474D]", "residual activity": "95%"}

Then this compound:
*Q* Any idea what its residual activity is? The compound is Cc1ccc(=O)n(-c2ccccc2)c1
*A* 99%
